Test: NCI Yeast Anticancer Drug Screen. Data for the mec2-1 strain (AID 157)
Details: S. cerevisiae mec2-1 strain, at 50.0 µM
Compounds without any hit were thinned out: in the full panel of roughly 79,000, 15% have a hit. Active and inactive are the calls of the source. Cut-off read from the data, not from the text of the source: active = growth inhibition above about 70%; inactive = the rest.
Result category, one only: t = active, f = inactive

{"compound": "NC(=S)C(=Nc1ccccc1F)Nc1ccccc1F", "group": "f"}

Prompt: Dear all, I need the recorded test outcome for O=C(CC1Sc2ccccc2NC1=O)Nc1ccc([N+](=O)[O-])cc1[N+](=O)[O-] (configuration not stated) , thank you.
Response: t

Prompt: And then O=C1c2ccccc2C(=O)c2c1cc(O)c(O)c2O , what is it?
Response: t

Prompt: Same again, this time with O=C(c1ccc([N+](=O)[O-])cc1)c1[nH]c2ccccc2c(=O)c1-c1ccccc1
Response: t

Prompt: Also need c1ccc(C2=NOC3(c4ccccc4)SC4CCCCC4CN23)cc1 (configuration not stated) , thanks.
Response: t

Prompt: Next record, please: O=[n+]1c2c(n([O-])c3ccc4ccccc4c31)-c1cccc3cccc-2c13
Response: f
